Data origin, for the record: patent US20210402016A1

- test-method-notes: Biodistribution in PC-3 tumor-bearing NSG mice (Example 2)
- Format: in vivo
- test-context: male, NSG (NOD.Cg-Prkdc^scid Il2rg^tm1Wjl/SzJ), mouse, kidney, iv, total radioactivity, 120 MIN p.i.; read-out: Biodistribution KIDNEY, Mean
assay-endpoint: tissue uptake at 2 h (%ID/g)
Give bare numbers, in %ID/g.

State the recorded tissue uptake at 2 h for this entry: CC(C)C[C@@H](CN1CCC[C@H]1C(N)=O)NC(=O)[C@H](Cc1c[nH]cn1)NC(=O)CNC(=O)[C@@H](NC(=O)[C@H](C)NC(=O)[C@H](Cc1c[nH]c2ccccc12)NC(=O)[C@H](CCC(N)=O)NC(=O)[C@@H](Cc1ccccc1)NC(=O)CN1CCC(NC(=O)CN2CCN(CC(=O)O)CCN(CC(=O)O)CCN(CC(=O)O)CC2)CC1)C(C)C [^68Ga-ProBOMB2, metal not drawn] 1.27
